# assay.text: chemical genetic growth profiling, strain panel (AID 1159580);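 note: tested at 20 µM; growth read once vehicle control cultures reached saturation at 30 °C; 1 = growth at the plate median or of vehicle wells; lower values mean less growth of the strain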
# test.parameters: S. cerevisiae deletion strains, growth OD, locus YOR144C, strain elg1, active compounds read low
Hit rate of the full screen: of about 5,500 compounds, about 2,000 (36%) were called active. Not shown: some 18% with an inconclusive outcome. The list shows a part of the results.

molecule | normalized growth
CC(C)(C)NCC(O)c1cc(Cl)c(N)c(Cl)c1 (stereo not given) | 0.999
COC(=O)C1OC(=O)C2OC23C1(C)CCC1C2(C)C(OC(C)=O)CC(OC(C)=O)C(C)(C)C2CC(=O)C13C (stereo not given) | 0.993
CN1C[C@H](C(=O)N[C@]2(C)O[C@@]3(O)[C@@H]4CCCN4C(=O)[C@H](Cc4ccccc4)N3C2=O)C[C@@H]2c3cccc4[nH]cc(c34)C[C@H]21 | 0.985
CC(C)(O)[C@@H]1Cc2cc3ccc(=O)oc3cc2O1 | 1
COc1ccccc1/C=C\C(=O)O | 1.02

Data provenance is PubChem BioAssay AID1159580.
